assay: Antiproliferative activity against growth of HaCaT cell was determined; format: functional, cell-based; details: Homo sapiens
measured.parameter: pIC50
pIC50 here: minus log base 10 of the concentration, concentration in moles per litre.

Previously resolved entries follow.
INSERT INTO results (smiles_record, measured_value) VALUES
  ('O=C1c2c(O)cccc2C(C(=O)/C=C/c2cccs2)c2cccc(O)c21', 5.38),
  ('O=C1c2c(O)cccc2C(C(=O)/C=C/c2ccco2)c2cccc(O)c21', 5.82),
  ('O=C1c2c(O)cccc2Cc2cccc(O)c21', 6.15),
  ('O=C1c2c(O)cccc2C(C(=O)c2ccc[nH]2)c2cccc(O)c21', 6.22),
  ('O=C1c2c(O)cccc2C(C(=O)c2cc3ccccc3[nH]2)c2cccc(O)c21', 6.15);

Continue with the compound presented below.
Prompt: Fill in the blank: the reported pIC50 of `O=C1c2c(O)cccc2C(C(=O)c2ccco2)c2cccc(O)c21` is ____.
Completion: 5.92
